System: Pyricularia oryzae (Rice)
Format: in vivo
test.parameters: 100 ppm a.i. foliar spray or root drench (approx. 40 ppm in dry soil), one or two days before inoculation
Please provide measured POCO (Percentage of Control) disease level, Pyricularia oryzae (Rice) for the entries that follow.

Hi! What's the reported POCO (Percentage of Control) disease level, Pyricularia oryzae (Rice) for COC=C(C(=O)OC)c1ccccc1COC(=O)Nc1ccccc1[N+](=O)[O-] [15 (1)] on Pyricularia oryzae (Rice)? 5 (5 = 3.1-5% disease present)

Queued: CCN(C(=O)OCc1ccccc1C(=COC)C(=O)OC)c1ccccc1F [3 (3)] 0 (0 = 0% disease present)

// same read-out, input: COC=C(C(=O)OC)c1ccccc1COC(=O)N(C)c1ccc(F)c(Cl)c1 [104 (2)] 0 (0 = 0% disease present)

Next: CCN(C(=O)OCc1ccccc1C(=COC)C(=O)OC)c1ccc(F)c(F)c1 [28 (3)] 1 (1 = 0.1-1% disease present)

Field entry: C=CCN(C(=O)OCc1ccccc1C(=COC)C(=O)OC)c1c(F)cccc1F [23 (101)] 0 (0 = 0% disease present)

Now give it for COC=C(C(=O)OC)c1ccccc1COC(=O)N(C)c1cccc(C(F)(F)F)c1 [2 (2)] too. 5 (5 = 3.1-5% disease present)

Same lookup for COC=C(C(=O)OC)c1ccccc1OC(=O)Nc1ccccc1 [5 (17)] , please. 5 (5 = 3.1-5% disease present)

Let us now turn to COC=C(C(=O)OC)c1ccccc1COC(=O)N(C)c1cc(F)ccc1F [27 (2)] 0 (0 = 0% disease present)

Repeat for the following molecule: COC=C(C(=O)OC)c1ccccc1COC(=O)N(C)c1ccc(F)c(F)c1 [28 (2)] 0 (0 = 0% disease present)

Ok, now COC=C(C(=O)OC)c1ccccc1COC(=O)N(C(C)=O)c1ccccc1Cl [12 (99)] 10 (10 = 5.1-10% disease present)

Continue with COC=C(C(=O)OC)c1ccccc1COC(=O)N(Cc1ccccc1)c1cccc(F)c1 [8 (97)] 30 (30 = 20.1-30% disease present)

Follow-up entry: CNC(=O)C(=NOC)c1ccccc1COC(=O)N(C)c1ccccc1 [5 (66)] 0 (0 = 0% disease present)

Follow-up item: COC=C(C(=O)OC)c1ccccc1COC(=O)N(C)c1ccccc1Cl [12 (2)] 10 (10 = 5.1-10% disease present)

Could you do the same for CCN(C(=O)OCc1ccccc1C(=COC)C(=O)OC)c1ccc(F)c([N+](=O)[O-])c1 [105 (3)] , please? 60 (60 = 30.1-60% disease present)

Can you handle COC=C(C(=O)OC)c1ccccc1OC(=O)NCc1ccccc1 [4 (17)] next? 5 (5 = 3.1-5% disease present)

Further, for COC=C(C(=O)OC)c1ccccc1COC(=O)N(C)c1cccc([N+](=O)[O-])c1 [6 (2)] ? 0 (0 = 0% disease present)

For C#CCN(C(=O)OCc1ccccc1C(=COC)C(=O)OC)c1ccccc1OC [16 (15)] then? 0 (0 = 0% disease present)

Queued: CCN(C(=O)OCc1ccccc1C(=COC)C(=O)OC)c1cccc([N+](=O)[O-])c1 [6 (3)] 0 (0 = 0% disease present)

Quick one: COC=C(C(=O)OC)c1ccccc1COC(=O)N(C)c1cccc(F)c1 [8 (2)] 0 (0 = 0% disease present)

Try this molecule too: COC=C(C(=O)OC)c1ccccc1COC(=S)Nc1ccccc1SC [21 (6)] 0 (0 = 0% disease present)

Cool, now CCN(C(=O)OCc1ccccc1C(=COC)C(=O)OC)c1c(F)cccc1F [23 (3)] 1 (1 = 0.1-1% disease present)

One more molecule: CCN(C(=O)OCc1ccccc1C(=COC)C(=O)OC)c1cc(F)ccc1F [27 (3)] 0 (0 = 0% disease present)

Also, COC=C(C(=O)OC)c1ccccc1COC(=S)Nc1cccc(C(F)(F)F)c1 [2 (6)] please. 5 (5 = 3.1-5% disease present)

Also, COC=C(C(=O)OC)c1ccccc1COC(=O)Nc1ccccc1C(F)(F)F [18 (1)] please. 60 (60 = 30.1-60% disease present)

Query COC=C(C(=O)OC)c1ccccc1COC(=O)N(C)c1ccccc1[N+](=O)[O-] [15 (2)] next 0 (0 = 0% disease present)

Another molecule: COC=C(C(=O)OC)c1ccccc1COC(=O)N(C)c1ccccc1F [3 (2)] 0 (0 = 0% disease present)

Another molecule: COC=C(C(=O)OC)c1ccccc1COC(=O)Nc1c(F)cccc1F [23 (1)] 30 (30 = 20.1-30% disease present)

COC=C(C(=O)OC)c1ccccc1COC(=O)N(C)c1c(F)cccc1F [23 (2)] ? 0 (0 = 0% disease present)

How about this molecule: CCN(C(=O)OCc1ccccc1C(=COC)C(=O)OC)c1ccccc1 [5 (3)] 0 (0 = 0% disease present)

COC=C(C(=O)OC)c1ccccc1COC(=O)Nc1ccc(F)c([N+](=O)[O-])c1 [105 (1)] ? 60 (60 = 30.1-60% disease present)

Moving on to COC=C(C(=O)OC)c1ccccc1COC(=O)N(C)c1ccccc1C#N [29 (2)] 0 (0 = 0% disease present)

====

Test system: Phytophthora infestans (Tomatoes)
Type: in vivo
test.parameters: 100 ppm a.i. foliar spray or root drench (approx. 40 ppm in dry soil), one or two days before inoculation
property.name: POCO (Percentage of Control) disease level, Phytophthora infestans (Tomatoes)

Reported POCO (Percentage of Control) disease level, Phytophthora infestans (Tomatoes) for CCN(C(=O)OCc1ccccc1C(=COC)C(=O)OC)c1cccc([N+](=O)[O-])c1 : what is it? 10 (10 = 5.1-10% disease present)

What do you get for COC=C(C(=O)OC)c1ccccc1COC(=O)Nc1ccccc1Cl ? 30 (30 = 20.1-30% disease present)

Same question, COC=C(C(=O)OC)c1ccccc1COC(=O)Nc1ccccc1F this time 30 (30 = 20.1-30% disease present)

// repeat for COC=C(C(=O)OC)c1ccccc1COC(=O)N(C)c1cccc(F)c1 and report 0 (0 = 0% disease present)

Next record, please: CCN(C(=O)OCc1ccccc1C(=COC)C(=O)OC)c1ccccc1 5 (5 = 3.1-5% disease present)

Same question for COC=C(C(=O)OC)c1ccccc1OC(=O)Nc1ccc(F)cc1F please. 0 (0 = 0% disease present)

Follow-up item: COC=C(C(=O)OC)c1ccccc1COC(=O)N(C)c1cccc([N+](=O)[O-])c1F 60 (60 = 30.1-60% disease present)

For COC=C(C(=O)OC)c1ccccc1OC(=O)Nc1ccccc1 then? 60 (60 = 30.1-60% disease present)

What about this compound? COC=C(C(=O)OC)c1ccccc1COC(=O)NCc1ccccc1 60 (60 = 30.1-60% disease present)

Same question for CCN(C(=O)OCc1ccccc1C(=COC)C(=O)OC)c1ccc(F)cc1 please. 0 (0 = 0% disease present)

====

Consider the following compounds; for each one, report its POCO (Percentage of Control) disease level, Thanatephorus cucumeries (Rice).
Tested on: Thanatephorus cucumeries (Rice)
protocol.description: Foliar fungal disease test on plants: Thanatephorus cucumeries (Rice)
Type: in vivo
test.parameters: 100 ppm a.i. foliar spray or root drench (approx. 40 ppm in dry soil), one or two days before inoculation

Form field: reported POCO (Percentage of Control) disease level, Thanatephorus cucumeries (Rice) of COC=C(C(=O)OC)c1ccccc1COC(=O)Nc1cccc(OC)c1 60 (60 = 30.1-60% disease present)

Now this one: COC=C(C(=O)OC)c1ccccc1COC(=S)Nc1ccccc1SC 0 (0 = 0% disease present)

Can you check COC=C(C(=O)OC)c1ccccc1COC(=O)N(C)c1cc(F)ccc1F next? 0 (0 = 0% disease present)

Also check COC=C(C(=O)OC)c1ccccc1COC(=O)N(C)c1ccccc1C#N 30 (30 = 20.1-30% disease present)

Next record, please: COC=C(C(=O)OC)c1ccccc1COC(=O)Nc1c(F)cccc1F 0 (0 = 0% disease present)

Note, next up: CCN(C(=O)OCc1ccccc1C(=COC)C(=O)OC)c1ccc(F)c(F)c1 0 (0 = 0% disease present)

Moving on to the next compound: COC=C(C(=O)OC)c1ccccc1COC(=O)N(C)c1ccc(F)c(Cl)c1 0 (0 = 0% disease present)

====

Test system: Thanatephorus cucumeries (Rice)
protocol.description: Foliar fungal disease test on plants: Thanatephorus cucumeries (Rice)
Format: in vivo
test.parameters: 100 ppm a.i. foliar spray or root drench (approx. 40 ppm in dry soil), one or two days before inoculation
Hi there, I'd appreciate the recorded POCO (Percentage of Control) disease level, Thanatephorus cucumeries (Rice) for every entry that follows.

Please give the measured POCO (Percentage of Control) disease level, Thanatephorus cucumeries (Rice) for this compound: CO/C=C(/C(=O)OC)c1ccccc1COC(=O)Nc1cccc(C(F)(F)F)c1 60 (60 = 30.1-60% disease present)

Please do the same for CCN(C(=O)OCc1ccccc1C(=COC)C(=O)OC)c1ccccc1F as well. 0 (0 = 0% disease present)

Also check COC=C(C(=O)OC)c1ccccc1COC(=O)N(C)c1c(F)cccc1F 0 (0 = 0% disease present)

Note, next up: COC=C(C(=O)OC)c1ccccc1COC(=O)N(C)c1ccc(F)cc1 0 (0 = 0% disease present)

Same lookup for COC=C(C(=O)OC)c1ccccc1COC(=O)N(C)c1ccc(F)c(F)c1 , please. 0 (0 = 0% disease present)

For COC=C(C(=O)OC)c1ccccc1COC(=O)N(C)c1ccc(F)cc1F then? 0 (0 = 0% disease present)

Would you mind doing COC=C(C(=O)OC)c1ccccc1OC(=O)Nc1ccc(F)cc1F as well? 60 (60 = 30.1-60% disease present)

Field entry: COC=C(C(=O)OC)c1ccccc1COC(=O)Nc1ccccc1Cl 30 (30 = 20.1-30% disease present)

And what about the compound COC=C(C(=O)OC)c1ccccc1COC(=O)N(C)c1ccccc1C(=O)OC ? 60 (60 = 30.1-60% disease present)

Please give the result for CCN(C(=O)OCc1ccccc1C(=COC)C(=O)OC)c1cc(F)ccc1F too. 0 (0 = 0% disease present)

Moving on to C=CCN(C(=O)OCc1ccccc1C(=COC)C(=O)OC)c1c(F)cccc1F 0 (0 = 0% disease present)

Follow-up item: COC=C(C(=O)OC)c1ccccc1COC(=O)N(C)c1cccc([N+](=O)[O-])c1 30 (30 = 20.1-30% disease present)

Now consider CCN(C(=O)OCc1ccccc1C(=COC)C(=O)OC)c1c(F)cccc1F . 0 (0 = 0% disease present)

Try the compound COC=C(C(=O)OC)c1ccccc1COC(=O)Nc1ccc(F)c([N+](=O)[O-])c1 60 (60 = 30.1-60% disease present)
